molecular target: Tyrosine-protein kinase Blk (Homo sapiens) (UniProt P51451); details: at 1 µM;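 note: mean percent inhibition of BLK kinase activity, from GSK PKIS kinase inhibitor set profiling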
Sequence (P51451 2-505 limits assumed): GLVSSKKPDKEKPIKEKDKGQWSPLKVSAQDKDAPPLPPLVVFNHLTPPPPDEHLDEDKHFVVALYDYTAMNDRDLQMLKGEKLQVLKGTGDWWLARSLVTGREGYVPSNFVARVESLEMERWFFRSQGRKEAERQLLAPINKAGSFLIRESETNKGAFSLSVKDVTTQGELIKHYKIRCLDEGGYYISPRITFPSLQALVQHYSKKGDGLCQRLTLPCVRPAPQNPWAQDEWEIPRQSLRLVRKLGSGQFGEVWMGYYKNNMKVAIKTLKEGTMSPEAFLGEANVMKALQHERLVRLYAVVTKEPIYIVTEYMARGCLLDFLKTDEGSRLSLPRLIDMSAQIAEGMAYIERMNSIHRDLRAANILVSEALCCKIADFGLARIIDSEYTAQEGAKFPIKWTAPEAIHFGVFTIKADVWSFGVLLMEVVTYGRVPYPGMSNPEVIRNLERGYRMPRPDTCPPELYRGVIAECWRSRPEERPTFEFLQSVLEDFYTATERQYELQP
observationType: inhibition (%)
Give bare numbers, in %.

Check out these entries, answers already filled in.
1. COc1ccc(-c2coc3ncnc(N)c23)cc1; 5.06
2. COC(=O)Nc1nc2cc(Oc3ccc(NC(=O)Nc4cccc(C(=O)O)c4)cc3)ccc2[nH]1; 0.01
3. COc1cc2ncn(-c3cc(OCc4ccccc4C(F)(F)F)c(C(N)=O)s3)c2cc1OC; 17.8
4. COc1ccc2cc(-c3c(-c4ccncc4)nc(-c4ccc([S+](C)[O-])cc4)n3C)ccc2c1 (stereo not given); 6.67
5. COc1ccc(COc2ccc(Cc3cnc(N)nc3N)cc2OC)cc1; 0.47
6. COc1cc(C=NNc2ncnc3c2cnn3-c2ccccc2)ccc1O; 65.5

Here are 2 compounds. What values of inhibition were reported for them?
1. COc1ccccc1Nc1ncc(-c2ccccc2)o1
2. CCn1c(-c2nonc2N)nc2cnc(Oc3cccc(NC(=O)c4ccc(OCCN5CCOCC5)cc4)c3)cc21

Result:
1: 5.8; 2: 2.41

Report inhibition for each item below.
1. CCn1c(-c2nonc2N)nc2cncc(C(=O)N3CC[C@H](N)C3)c21
2. Nc1nc(-c2ccc3c(c2)C(=Cc2cc(Br)c(O)c(Br)c2)C(=O)N3)cs1

Result:
[3.09, 5.56]

====

Provide the recorded inhibition for the entries that follow.
target: G protein-coupled receptor kinase 6 (Homo sapiens) (UniProt P43250); settings: at 0.1 µM;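 note: mean percent inhibition of GRK6, GSK PKIS screen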
Sequence (P43250 whole entry, looked up): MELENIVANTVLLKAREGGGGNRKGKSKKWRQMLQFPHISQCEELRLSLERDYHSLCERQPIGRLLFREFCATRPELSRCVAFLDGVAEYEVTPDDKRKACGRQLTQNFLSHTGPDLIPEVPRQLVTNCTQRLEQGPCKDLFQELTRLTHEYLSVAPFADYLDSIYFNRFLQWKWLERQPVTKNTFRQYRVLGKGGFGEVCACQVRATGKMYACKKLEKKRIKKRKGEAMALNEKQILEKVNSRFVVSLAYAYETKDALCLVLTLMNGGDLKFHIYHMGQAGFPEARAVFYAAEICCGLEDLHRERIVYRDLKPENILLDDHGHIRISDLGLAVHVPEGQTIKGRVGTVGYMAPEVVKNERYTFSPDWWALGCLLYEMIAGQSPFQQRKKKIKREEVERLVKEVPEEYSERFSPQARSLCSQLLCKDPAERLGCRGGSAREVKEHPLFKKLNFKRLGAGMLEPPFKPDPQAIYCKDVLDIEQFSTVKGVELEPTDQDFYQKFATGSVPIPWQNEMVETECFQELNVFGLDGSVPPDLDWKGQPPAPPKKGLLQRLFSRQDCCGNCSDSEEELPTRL
Numbers only, in %.

1. CC(=O)Nc1cccc(C#Cc2cncnc2Nc2ccc(OCc3cccc(F)c3)c(Cl)c2)n1; 0.73
2. Nc1nc(-c2ccccn2)c(-c2ccc3ncccc3n2)s1; 5.73
3. CCn1c(-c2nonc2N)nc2cnc(Oc3cccc(NC(=O)c4ccc(OCCN5CCOCC5)cc4)c3)cc21; 6.32
4. NC(=O)c1ccc(-c2nc(-c3ccccn3)c(-c3ccc4c(c3)OCO4)[nH]2)cc1; 0.64
5. CNC(=O)c1cncc(/C=C/c2c(Cl)cccc2Cl)c1; 3.3
6. NS(=O)(=O)c1cccc(-c2ccc3c(NC(=O)C4CC4)n[nH]c3c2)c1; 1.43

I'm hoping you can list inhibition for every compound here, please.
1. CC1=C(C(=O)Nc2ccc3[nH]ncc3c2)C(c2ccc(F)cc2)NC(=O)N1 (stereo unspecified)
2. CCn1c(-c2nonc2N)nc2c(C#CC(C)(C)O)nc(OC[C@@H](N)c3ccccc3)cc21
3. Cc1ccc(NC(=O)c2ccnc(N3CCCC3)c2)cc1-c1ccc(C(=O)NCC2CC2)cc1
4. c1cnn2ncc(-c3ccnc(Nc4ccc5c(c4)OCCO5)n3)c2c1
5. COc1cc2ncn(-c3cc(O[C@@H](C)c4ccccc4Cl)c(C(N)=O)s3)c2cc1OC
6. COc1cc2ncn(-c3cc(OCc4ccccc4Cl)c(C(N)=O)s3)c2cc1OC
7. O=C1NC(=O)C(c2ccccc2Cl)=C1Nc1cccc(O)c1

Result:
5.16
-1.09
2.49
7.21
0.89
2.37
1.82

Could you tell me inhibition for each of these compounds? They are listed below.
1. CCn1c(-c2nonc2N)nc2c(C#CC(C)(C)O)nc(CN3CCCC3)cc21
2. CCn1c(-c2nonc2N)nc2ccncc21
3. Nc1ncnc2occ(-c3ccc(NC(=O)Nc4cccc(C(F)(F)F)c4)cc3)c12

Result:
[-2.28, 0.85, 2.54]

====

target: Tyrosine-protein kinase receptor TYRO3 (Homo sapiens) (UniProt Q06418); settings: at 0.1 µM;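 note: reported percentages are averaged inhibition values of TYRO3 kinase activity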
Sequence (Q06418 whole entry): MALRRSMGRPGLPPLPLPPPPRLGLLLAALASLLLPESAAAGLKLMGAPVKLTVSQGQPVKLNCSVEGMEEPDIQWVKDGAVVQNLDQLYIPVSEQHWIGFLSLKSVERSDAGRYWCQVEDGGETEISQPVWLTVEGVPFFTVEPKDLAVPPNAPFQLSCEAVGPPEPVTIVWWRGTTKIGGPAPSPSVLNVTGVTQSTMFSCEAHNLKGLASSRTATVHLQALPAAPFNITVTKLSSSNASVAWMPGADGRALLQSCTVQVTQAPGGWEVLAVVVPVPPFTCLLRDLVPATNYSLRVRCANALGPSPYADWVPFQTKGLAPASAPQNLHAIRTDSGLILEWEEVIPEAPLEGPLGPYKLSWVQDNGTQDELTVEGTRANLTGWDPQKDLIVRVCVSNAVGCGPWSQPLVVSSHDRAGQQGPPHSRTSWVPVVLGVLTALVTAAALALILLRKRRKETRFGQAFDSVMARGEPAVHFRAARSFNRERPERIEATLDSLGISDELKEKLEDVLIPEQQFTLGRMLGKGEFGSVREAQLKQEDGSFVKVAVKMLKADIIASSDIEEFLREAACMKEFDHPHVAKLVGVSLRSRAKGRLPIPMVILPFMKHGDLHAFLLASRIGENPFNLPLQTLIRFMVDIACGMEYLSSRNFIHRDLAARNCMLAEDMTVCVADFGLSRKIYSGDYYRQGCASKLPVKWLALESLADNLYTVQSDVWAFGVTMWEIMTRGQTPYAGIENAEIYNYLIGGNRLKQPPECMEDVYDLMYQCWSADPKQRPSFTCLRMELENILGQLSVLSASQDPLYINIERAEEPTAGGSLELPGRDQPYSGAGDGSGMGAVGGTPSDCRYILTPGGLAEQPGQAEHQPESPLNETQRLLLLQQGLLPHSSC
For each of the compounds below, state its inhibition.
Numbers only, in %.

Below, 4 compounds whose answers are already recorded.
1. O=C1NC(=O)C(c2cccc(Cl)c2)=C1Nc1ccc(O)c(Cl)c1; -0.43
2. NC(=O)c1cccc(Nc2nccc(Nc3cccc4[nH]ncc34)n2)c1; 9.98
3. NCc1ccc(-c2nc(-c3ccc(Cl)c(O)c3)c(-c3ccncc3)[nH]2)cc1; 0.69
4. Fc1cccc(COc2ccc(Nc3ncnc4cc(-c5ccc[nH]5)sc34)cc2Cl)c1; 2.87

Switching to the query record.
Ask: # query: inhibition of entry CCn1c(-c2nonc2N)nc2cncc(C(=O)N3CC[C@H](N)C3)c21
Result: 4.09

====

target: Macrophage-stimulating protein receptor (Homo sapiens); settings: at 1 µM
Description: GSK_PKIS: RON mean inhibition at 1 uM [Nanosyn]
I'd appreciate it if you could supply inhibition values for the items below.
Returns: string containing the numeric result and its unit.

Please give inhibition for each item listed below.
1. CC1=C(C(=O)Nc2ccc3[nH]ncc3c2)C(c2ccc(F)cc2)NC(=O)N1 (stereo unspecified)
2. COC(=O)Nc1nc2cc(Oc3cccc(NC(=O)Nc4cc(C(F)(F)F)ccc4F)c3)ccc2[nH]1

Result:
1: 21.4%; 2: -2.46%

Provide inhibition values for the following items, in order.
1. COc1cc2ncn(-c3cc(OCc4ccccc4C(F)(F)F)c(C(N)=O)s3)c2cc1OC
2. CCn1c(-c2nonc2N)nc2cnc(Oc3cccc(NC(=O)c4ccc(OCCN5CCOCC5)cc4)c3)cc21
3. COc1cc2ncn(-c3cc(O[C@@H](C)c4ccccc4Cl)c(C(N)=O)s3)c2cc1OC
4. Nc1ncnc2occ(-c3ccc(NC(=O)Nc4cccc(C(F)(F)F)c4)cc3)c12
5. COc1ccccc1Nc1ncc(-c2ccccc2)o1
6. CC(C)=Cc1cccc2c1/C(=N/Nc1ccc(S(N)(=O)=O)cc1)C(=O)N2

Result:
1. 8.36%
2. 5%
3. 2.55%
4. 27.7%
5. 1.59%
6. 4.1%

====

biological target: Dual specificity protein kinase CLK3 (Homo sapiens) (UniProt P49761); conditions: at 0.1 µM
Sequence (P49761 whole entry, looked up): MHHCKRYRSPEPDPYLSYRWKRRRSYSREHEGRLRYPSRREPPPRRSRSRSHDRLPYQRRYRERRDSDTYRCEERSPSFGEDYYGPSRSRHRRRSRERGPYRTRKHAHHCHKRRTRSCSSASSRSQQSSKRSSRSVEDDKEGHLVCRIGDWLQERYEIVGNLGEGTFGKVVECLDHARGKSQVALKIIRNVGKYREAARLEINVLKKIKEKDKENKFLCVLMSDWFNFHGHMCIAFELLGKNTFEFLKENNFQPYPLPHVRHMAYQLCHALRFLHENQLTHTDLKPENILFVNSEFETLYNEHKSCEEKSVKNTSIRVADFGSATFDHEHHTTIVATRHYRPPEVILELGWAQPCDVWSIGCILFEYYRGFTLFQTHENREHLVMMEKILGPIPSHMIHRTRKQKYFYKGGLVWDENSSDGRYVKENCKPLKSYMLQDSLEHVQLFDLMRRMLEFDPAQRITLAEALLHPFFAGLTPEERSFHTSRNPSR
Description: GSK_PKIS: CLK3 mean inhibition at 0.1 uM [Nanosyn]
observationType: inhibition (%)
Give bare numbers, in %.

Would you mind listing inhibition for each of the following molecules?
1. COc1cc2ncn(-c3cc(OCc4ccccc4Cl)c(C(N)=O)s3)c2cc1OC
2. NS(=O)(=O)c1cccc(-c2ccc3c(NC(=O)C4CC4)n[nH]c3c2)c1
3. Cc1ccc(C(=O)NC2CCCCC2)cc1-c1ccc(C(=O)NCC2CC2)cc1
4. [O-][S+]1CCN(Cc2ccc(-c3ccc4ncnc(Nc5ccc(OCc6ccccc6)c(F)c5)c4c3)o2)CC1
5. O=C1Nc2ccc(C(=O)c3ccco3)cc2C1=Cc1cc(Cl)c(O)c(Cl)c1
6. CN(C)c1cc2c(Nc3ccc4nc(Cc5ccccc5)[nH]c4c3)ncnc2cn1
7. CCN1CCC(CC(=O)Nc2n[nH]c3nc(-c4cccs4)c(Br)cc23)CC1
8. CS(=O)(=O)CCNCc1nc(-c2ccc3ncnc(Nc4ccc(F)c(Cl)c4)c3c2)cs1

Result:
1: 1.33; 2: 0.83; 3: 0.94; 4: 0.9; 5: 22.3; 6: 2.14; 7: 0.48; 8: -0.05

Ask: Give the measured inhibition of Cc1ccc(NC(=O)c2ccnc(N3CCCC3)c2)cc1-c1ccc(C(=O)NCC2CC2)cc1 .
Result: -1.85

====

Provide the recorded inhibition for the entries that follow.
target: Tyrosine-protein kinase SYK (Homo sapiens); details: at 1 µM
Description: GSK_PKIS: SYK mean inhibition at 1 uM [Nanosyn]
Give bare numbers, in %.

1. O=C1Nc2ccc(C(=O)c3ccco3)cc2C1=Cc1cc(Cl)c(O)c(Cl)c1; -0.93
2. NCc1ccc(-c2nc(-c3ccc(Cl)c(O)c3)c(-c3ccncc3)[nH]2)cc1; 1.13
3. COc1ccccc1Nc1ncc(-c2ccccc2)o1; -4.41

Ask: Give its inhibition value. Item: CS(=O)(=O)Nc1ccc(N/C=C2\C(=O)Nc3ccccc32)cc1
Result: -3.83

====

target: Mitogen-activated protein kinase kinase kinase kinase 2 (Homo sapiens); conditions: at 0.1 µM;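 note: values given as mean percent inhibition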
Assignment: determine reported inhibition for the given compounds.
Give bare numbers, in %.

Please review the entries below; each comes with its answer.
1. CCn1c(-c2nonc2N)nc2c(C#CC(C)(C)O)nc(CN3CCCC3)cc21; 1.94
2. NC(=O)c1cccc(Nc2nccc(Nc3cccc4[nH]ncc34)n2)c1; 2.55

Hi! Can you tell me inhibition for each of these compounds?
1. Cc1nn(C)c2cc(N(C)c3ccnc(Nc4cccc(S(N)(=O)=O)c4)n3)ccc12
2. CCn1c(-c2nonc2N)nc2c(C#CC(C)(C)O)nc(OC[C@@H](N)c3ccccc3)cc21

Result:
[7.42, 0.61]

====

molecular target: Serine/threonine-protein kinase Chk2 (Homo sapiens) (UniProt O96017); details: at 1 µM;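 note: reported value is the mean inhibition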
Sequence (O96017 whole entry): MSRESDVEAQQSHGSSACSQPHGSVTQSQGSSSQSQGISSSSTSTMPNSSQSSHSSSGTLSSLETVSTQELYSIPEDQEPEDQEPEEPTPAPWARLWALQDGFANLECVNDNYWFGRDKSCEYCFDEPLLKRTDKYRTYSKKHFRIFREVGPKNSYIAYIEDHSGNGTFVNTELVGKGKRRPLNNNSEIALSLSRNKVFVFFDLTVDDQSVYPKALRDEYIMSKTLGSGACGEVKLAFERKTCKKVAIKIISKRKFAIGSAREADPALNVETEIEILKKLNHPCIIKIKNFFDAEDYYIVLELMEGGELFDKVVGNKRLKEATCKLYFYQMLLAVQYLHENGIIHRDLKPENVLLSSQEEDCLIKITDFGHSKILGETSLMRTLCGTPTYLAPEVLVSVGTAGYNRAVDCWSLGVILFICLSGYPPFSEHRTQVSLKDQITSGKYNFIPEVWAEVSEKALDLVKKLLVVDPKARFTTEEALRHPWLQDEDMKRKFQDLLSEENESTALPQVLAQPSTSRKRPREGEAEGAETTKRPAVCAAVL
observationType: inhibition (%)
Numbers only, in %.

Field: example entries. Status: answers known.
1) NCc1ccc(-c2nc(-c3ccc(Cl)c(O)c3)c(-c3ccncc3)[nH]2)cc1; 0.67
2) Cn1cc(C=C2C(=O)Nc3cccnc32)c2ccccc21; 15.6
3) COc1ccc2cc(-c3c(-c4ccncc4)nc(-c4ccc([S+](C)[O-])cc4)n3C)ccc2c1 (stereo not given); 2.52
4) O=C1NC(=O)C(c2ccccc2Cl)=C1Nc1cccc(O)c1; 2.39

Quick batch: inhibition for everything below.
1. COc1ccc(-c2coc3ncnc(N)c23)cc1
2. CC(C)=Cc1cccc2c1/C(=N/Nc1ccc(S(N)(=O)=O)cc1)C(=O)N2
3. Fc1cccc(COc2ccc(Nc3ncnc4sc(-c5cccs5)cc34)cc2Cl)c1
4. Cc1ccc(NC(=O)c2ccnc(N3CCCC3)c2)cc1-c1ccc(C(=O)NCC2CC2)cc1
5. CS(=O)(=O)CCNCc1ccc(-c2ccc3ncnc(Nc4ccc(OCc5cccc(F)c5)c(C(F)(F)F)c4)c3c2)o1

Result:
1: 8.17; 2: 9.14; 3: -6.27; 4: 4.85; 5: 7.75

Ask: Provide the documented inhibition with Serine/threonine-protein kinase Chk2 (Homo sapiens) (UniProt O96017) as the system for COc1cc2ncn(-c3cc(O[C@H](C)c4ccccc4Cl)c(C(N)=O)s3)c2cc1OC
Result: -0.51
